TARGET_OR_TEST_SYSTEM: μ opioid receptor (Homo sapiens, UniProt P35372)
Construct: expressed in transfected cells; host or cells: CHO cells (membranes)
ASSAY_OVERVIEW: Competition binding assay on membranes of CHO cells expressing μ opioid receptor, [3H]-labeled ligand
CONDITIONS_USED: Table 3-1; 1 μM concentration of compounds; read-out: μOR Binding rate (%)
Structures can show the parent of a compound that is named as a salt.
Catalogue of inhibition at 1 µM values
The answer is to be given in %; state only the numeric part.

• COc1cccc(C2(O)CCN(C(=O)Nc3cc(C(F)(F)F)cc(C(F)(F)F)c3)CC2CN(C)C)c1.Cl (stereo not shown) [FWBF10, hydrochloride] = 0
• COc1cccc(C2(O)CCN(C(=O)Nc3ccc(Cl)c(Cl)c3)CC2CN(C)C)c1.Cl (stereo not shown) [FWBF5, hydrochloride] = 46

GET /values?readout=inhibition at 1 µM&item= COc1cccc(C2(O)CCN(C(=O)Nc3cc(Cl)c(Cl)c(Cl)c3)CC2CN(C)C)c1 (stereo not shown) [FWBF6, hydrochloride]
13.2

// same read-out, input: COc1cccc(C2(O)CCN(C(=O)Nc3ccc(F)c(F)c3)CC2CN(C)C)c1.Cl (stereo not shown) [FWBF8, hydrochloride]
13.6

----------
TARGET_OR_TEST_SYSTEM: κ opioid receptor (Homo sapiens)
Construct: expressed in transfected cells; host or cells: CHO cells (membranes)
ASSAY_OVERVIEW: Competition binding assay on membranes of CHO cells expressing κ opioid receptor, [3H]-labeled ligand
CONDITIONS_USED: 0.5 h; Table 2-1; 1 μM concentration of compound; read-out: κOR Binding rate (%)
Items are presented alongside their recorded inhibition at 1 µM.
Please state the figure in %; there is no need to write the unit.

Here's what some known entries look like.
* COc1cccc(C2(O)CCN(S(C)(=O)=O)CC2CN(C)C)c1.Cl (stereo not shown) [FWBH23, hydrochloride] | 14.3
* CCCS(=O)(=O)N1CCC(O)(c2cccc(OC)c2)C(CN(C)C)C1.Cl (stereo not shown) [FWBH19, hydrochloride] | 19.1
* COc1cccc(C2(O)CCN(S(=O)(=O)CCc3ccccc3)CC2CN(C)C)c1.Cl (stereo not shown) [FWBH9, hydrochloride] | 8.41

Turning to the following molecule.
Please give the measured inhibition at 1 µM for this molecule: COc1cccc(C2(O)CCCCC2CN(C)C)c1 (stereo not shown) [Tramadol, reference compound]
0

----------
TARGET_OR_TEST_SYSTEM: μ opioid receptor (Homo sapiens, UniProt P35372)
Construct: expressed in transfected cells; host or cells: CHO cells (membranes)
ASSAY_OVERVIEW: Competition binding assay on membranes of CHO cells expressing μ opioid receptor, [3H]-labeled ligand
CONDITIONS_USED: Table 4-1; read-out: μOR Ki
Counter-ions that a name gives are not always drawn.
ENDPOINT_LABEL: Ki (nM)
Provide the reading as a plain figure in nM.

* CN(C)C[C@H]1CN(C(=O)Cc2cc(F)c(F)cc2F)CC[C@]1(O)c1cccc(O)c1 | 53.5
* CN(C)C[C@@H]1CN(S(=O)(=O)Cc2ccccc2)CC[C@@]1(O)c1cccc(O)c1 [hydrochloride] | 0.17
* COc1cccc([C@]2(O)CCN(C(=O)Cc3cc(F)c(F)cc3F)C[C@H]2CN(C)C)c1 | 165
* CN(C)C[C@H]1CN(S(=O)(=O)Cc2ccccc2)CC[C@]1(O)c1cccc(O)c1 [hydrochloride] | 38.3
* COc1cccc([C@@]2(O)CCN(C(=O)Cc3cc(F)c(F)cc3F)C[C@@H]2CN(C)C)c1 | 2310

Any idea what its Ki is? The compound is CN(C)C[C@@H]1CN(C(=O)Cc2cc(F)c(F)cc2F)CC[C@@]1(O)c1cccc(O)c1
1.77

----------
Test system: Female mice
ASSAY_OVERVIEW: In vivo hot plate method analgesia test
CONDITIONS_USED: Table 5-2, hot plate 55° C., intraperitoneal, 10 mg/kg dose
ENDPOINT_LABEL: Maximum percentage effective analgesia (% MPE)

• COc1cccc(C2(O)CCN(C(=O)C3(c4ccccc4)CCCCC3)CC2CN(C)C)c1.Cl (stereo not shown) = 61.21%

Please look up its Maximum percentage effective analgesia (% MPE): COc1cccc(C2(O)CCN(C(=O)Cc3cc(C(F)(F)F)cc(C(F)(F)F)c3)CC2CN(C)C)c1.Cl (stereo not shown)
17.8%

Ok, now COc1cccc(C2(O)CCN(C(=O)Cc3cccc(C#N)c3)CC2CN(C)C)c1.Cl (stereo not shown)
67.09%

Could you do the same for COc1cccc(C2(O)CCN(C(=O)Cc3ccccc3)CC2CN(C)C)c1.Cl (stereo not shown) , please?
63.5%

----------
System: Female mice
ASSAY_OVERVIEW: In vivo hot plate method analgesia test
CONDITIONS_USED: Table 5-2, hot plate 55° C., intraperitoneal, 10 mg/kg dose
Listing: Maximum percentage effective analgesia (% MPE) of selected compounds
Report the figure along with its unit, number first.

Examples with their reported Maximum percentage effective analgesia (% MPE) follow.
* COc1cccc(C2(O)CCN(C(=O)Cc3c[nH]c4ccccc34)CC2CN(C)C)c1 (stereo not drawn) [FWBE13] | 66.95%
* COc1cccc(C2(O)CCN(C(=O)Cn3cnnn3)CC2CN(C)C)c1.Cl (stereo not drawn) [FWBE7] | 12.0%
* COc1cccc(C2(O)CCN(C(=O)Cc3ccc4ccccc4c3)CC2CN(C)C)c1.Cl (stereo not drawn) [FWBE15] | 0%
* COc1cccc(C2(O)CCN(C(=O)C3(c4ccccc4)CCC3)CC2CN(C)C)c1.Cl (stereo not drawn) [FWBE25] | 5.03%
* COc1cccc(C2(O)CCN(C(=O)CCc3cccc(C(F)(F)F)c3)CC2CN(C)C)c1.Cl (stereo not drawn) [FWBE10] | 17.33%

Any idea what its Maximum percentage effective analgesia (% MPE) is? The compound is COc1cccc(C2(O)CCN(C(=O)Cc3cccc4ccccc34)CC2CN(C)C)c1.Cl (stereo not drawn) [FWBE16]
78.72%

Next record, please: COc1cccc(C2(O)CCN(C(=O)Cc3ccsc3)CC2CN(C)C)c1.Cl (stereo not drawn) [FWBE2]
42%

COc1cccc(C2(O)CCN(C(=O)Cc3ccc(Cl)c(Cl)c3)CC2CN(C)C)c1.Cl (stereo not drawn) [FWBE17] ?
70.66%

Try this compound next: COc1cccc(C2(O)CCN(C(=O)Cc3cccc(F)c3)CC2CN(C)C)c1.Cl (stereo not drawn) [FWBE12]
88.38%

----------
TARGET_OR_TEST_SYSTEM: κ opioid receptor (Homo sapiens, UniProt P41145)
Construct: expressed in transfected cells; host or cells: CHO cells (membranes)
ASSAY_OVERVIEW: Competition binding assay on membranes of CHO cells expressing κ opioid receptor, [3H]-labeled ligand
CONDITIONS_USED: 0.5 h; Table 1-1; 10 μM concentration of compound; read-out: κOR Binding rate (%)
Where a name gives a salt, the structure may show the parent alone.
Listed next: entries and their corresponding inhibition at 10 µM.
# unit: % | format: bare number

Some compounds with recorded inhibition at 10 µM:
- COc1cccc(C2(OC(=O)c3ccccc3)CCC(NS(=O)(=O)c3cccc(Cl)c3)CC2CN(C)C)c1 (stereo not shown): 39
- COc1cccc(C2(O)CCC(CS(=O)(=O)c3ccccc3)CC2CN(C)C)c1 (stereo not shown) [hydrochloride]: 34.6
- COc1cccc(C2(OC(=O)c3ccccc3)CCC(N(C)S(=O)(=O)Cc3ccccc3)CC2CN(C)C)c1 (stereo not shown): 35.7

// switching to the query compound
Entry COc1cccc(C2(O)CCC(N(Cc3ccccc3)S(=O)(=O)c3cccs3)CC2CN(C)C)c1 (stereo not shown) [hydrochloride] , system κ opioid receptor (Homo sapiens, UniProt P41145): what inhibition at 10 µM was measured?
71.2

----------
TARGET_OR_TEST_SYSTEM: δ opioid receptor (Homo sapiens)
Construct: expressed in transfected cells; host or cells: CHO cells (membranes)
ASSAY_OVERVIEW: Competition binding assay on membranes of CHO cells expressing δ opioid receptor, [3H]-labeled ligand
CONDITIONS_USED: 0.5 h; Table 3-1; 1 μM concentration of compounds; read-out: δOR Binding rate (%)
Counter-ions that a name gives are not always drawn.
Please use satisfied whenever inhibition at 1 µM is not below 2%, and not satisfied whenever it is.

Known results for compounds:
• COc1cccc(C2(O)CCN(C(=O)Nc3cc(Cl)c(Cl)c(Cl)c3)CC2CN(C)C)c1 (centres unmarked) [FWBF6, hydrochloride] = not satisfied
• COc1cccc(C2(O)CCN(C(=O)Nc3cccc(F)c3)CC2CN(C)C)c1 (centres unmarked) [FWBF7, hydrochloride] = satisfied
• COc1cccc(C2(O)CCN(C(=O)Nc3cc(C(F)(F)F)cc(C(F)(F)F)c3)CC2CN(C)C)c1.Cl (centres unmarked) [FWBF10, hydrochloride] = not satisfied
• COc1cccc(C2(O)CCN(C(=O)Nc3ccc(Cl)c(Cl)c3)CC2CN(C)C)c1.Cl (centres unmarked) [FWBF5, hydrochloride] = not satisfied
• COc1cccc(C2(O)CCN(C(=O)Nc3ccc4ccccc4c3)CC2CN(C)C)c1 (centres unmarked) [FWBF11, hydrochloride] = not satisfied

Assess whether reported inhibition at 1 µM for COc1cccc(C2(O)CCN(C(=O)N(C)c3cccc(Cl)c3)CC2CN(C)C)c1.Cl (centres unmarked) [FWBF3, hydrochloride] sits at 2% or higher.
not satisfied

Item: COc1cccc(C2(O)CCN(C(=O)NC34CC5CC(CC(O)(C5)C3)C4)CC2CN(C)C)c1.Cl (centres unmarked) [FWBF16, hydrochloride]
not satisfied

Another compound to check: COc1cccc(C2(O)CCN(C(=O)NCc3ccccc3)CC2CN(C)C)c1 (centres unmarked) [FWBF12, hydrochloride]
satisfied

Same for COc1cccc(C2(O)CCN(C(=O)Nc3cccs3)CC2CN(C)C)c1 (centres unmarked) [FWBF19, hydrochloride]
satisfied

Hello, the source for this data is patent US12624004B2, in case you need it.
